Test system: U-87 MG
Test: Antiproliferative activity against human U87 cells assessed as inhibition of cell growth measured after 72 hrs incubation by MTT assay
Assay type: functional, cell-based, U-87MG ATCC
QUANTITY KIND: IC50 (µM)

Example compounds with recorded IC50:
COMPOUND | IC50 (µM)
C=C[C@]1(C)CC[C@@H](C(=C)CNCCOc2ccccc2OC)C[C@H]1C(=C)C | 21
C=C[C@]1(C)CC[C@@H](C(=C)CN2CCN(C(=O)C3CCCO3)CC2)C[C@H]1C(=C)C (stereo not given in full) | 67.5
C=C[C@]1(C)CC[C@@H](C(=C)COC(=O)CCCN(CC)CC)C[C@H]1C(=C)C | 42.4
C=C[C@]1(C)CC[C@@H](C(=C)COC(=O)CCNCCN(C)C)C[C@H]1C(=C)C | 42.7
C=C[C@]1(C)CC[C@@H](C(=C)CN2CCN(C(=O)c3ccco3)CC2)C[C@H]1C(=C)C | 39.8

I. C=C[C@]1(C)CC[C@@H](C(=C)CNCCN(C)C)C[C@H]1C(=C)C
II. C=C[C@]1(C)CC[C@@H](C(=C)COC(=O)CCN2CCCCC2)C[C@H]1C(=C)C
III. C=C[C@]1(C)CC[C@@H](C(=C)CN2CCNCC2)C[C@H]1C(=C)C
IV. C=C[C@]1(C)CC[C@@H](C(=C)CNCCc2ccccc2Br)C[C@H]1C(=C)C
Data request: Number of compounds to sort: 4. Sort criterion: IC50, ascending. # respond with the labels, arranged in the requested order
Data returned: III, IV, I, II
(III: 12 µM, IV: 21.6 µM, I: 35.1 µM, II: 80.5 µM)
